Entry source: patent US8242118B2

OBSERVATION_TYPE: melting point (°C)

COc1cc(Oc2cc(Cl)cc(Cl)c2)c(S(=O)(=O)N2CCNCC2)cc1[N+](=O)[O-].Cl    181

(a) CC(C)(C)c1cccc(Oc2ccc([N+](=O)[O-])cc2S(=O)(=O)N2CCNCC2)c1.Cl
(b) Cl.O=[N+]([O-])c1ccc(Sc2ccc3ccccc3c2)c(S(=O)(=O)N2CCNCC2)c1
Enquiry: Please let me know which one, a or b , has a lower measured melting point value. Reply with the label of the item you choose.
Return: a

###

Target: Human CCR3 (Homo sapiens)
Construct: The cloned CCR3 cDNA was constructed with pcDNA3 vector and transfected into a IC562 cell line; expressed in transfected cells
Sequence (P51677 whole entry): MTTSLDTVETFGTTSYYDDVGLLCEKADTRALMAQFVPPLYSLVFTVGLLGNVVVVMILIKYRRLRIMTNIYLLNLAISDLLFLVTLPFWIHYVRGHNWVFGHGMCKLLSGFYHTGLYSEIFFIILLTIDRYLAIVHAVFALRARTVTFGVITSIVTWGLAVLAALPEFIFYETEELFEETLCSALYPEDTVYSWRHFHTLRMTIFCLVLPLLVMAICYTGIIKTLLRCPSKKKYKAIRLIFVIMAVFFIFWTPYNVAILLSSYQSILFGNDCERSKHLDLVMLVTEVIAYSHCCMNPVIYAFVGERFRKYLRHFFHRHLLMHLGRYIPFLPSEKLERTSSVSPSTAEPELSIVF
Assay: Receptor binding assay (RBA), [125I]-eotaxin
Details: human CCR3-transformed K562 cells, 0.1 nM [125I]-eotaxin; compounds of about 40 to 90% purity; read-out: Activity grade RBA (IC50 class)
pIC50: −log10 of the molar value.
OBSERVATION_TYPE: pIC50

Cc1cc(C)c(C)c(Oc2ccc([N+](=O)[O-])cc2S(=O)(=O)N2CCNCC2)c1.Cl    > 6.00
O=[N+]([O-])c1ccc(Oc2cccc(Cl)c2Cl)c(S(=O)(=O)N2CCNCC2)c1    5.00 to 6.00
Cl.O=[N+]([O-])c1ccc(Oc2cc(C(F)(F)F)cc(C(F)(F)F)c2)c(S(=O)(=O)N2CCNCC2)c1    > 6.00
CC(=O)c1ccccc1Oc1ccc([N+](=O)[O-])cc1S(=O)(=O)N1CCNCC1.Cl    < 5.00
CN(C)c1ccc(NS(=O)(=O)c2cc([N+](=O)[O-])ccc2Oc2cc(Cl)cc(Cl)c2)cc1    5.00 to 6.00
Cc1cc(C)cc(Oc2ccc([N+](=O)[O-])cc2S(=O)(=O)N2CCN(CCC(F)(F)F)CC2)c1    > 6.00

Moving on to the next molecule.
Enquiry: State pIC50 (Human CCR3 (Homo sapiens)) of COCCCN1CCN(S(=O)(=O)c2cc(C#N)ccc2Oc2cc(Cl)cc(Cl)c2)CC1 .
Return: > 6.00

###

Target: Human CCR3 (Homo sapiens)
Construct: The cloned CCR3 cDNA was constructed with pcDNA3 vector and transfected into a IC562 cell line; expressed in transfected cells
Assay: Calcium mobilization assay, eotaxin-stimulated
Type: cell-based
Settings: human CCR3-transformed K562 cells, 10 nM eotaxin; compounds of about 40 to 90% purity; read-out: Activity grade Ca2+ (IC50 class)
pIC50: −log10 of the molar value. Counter-ions that a name gives are not always drawn.
pIC50: recorded values

Below, 4 compounds whose answers are already recorded.
CN(c1cc(Cl)cc(Cl)c1)c1ccc(C#N)cc1S(=O)(=O)N1CCNCC1 [Example 21-1, hydrochloride]    5.00 to 6.00
O=[N+]([O-])c1ccc(Sc2cc(Cl)cc(Cl)c2)c(S(=O)(=O)NCCN2CCCCC2)c1 [Example 2-24]    > 6.00
Cc1ccc(C)c(Oc2ccc([N+](=O)[O-])cc2S(=O)(=O)N2CCNCC2)c1.Cl [Example 1-64]    > 6.00
Cc1cc(C)cc(Oc2ccc([N+](=O)[O-])cc2S(=O)(=O)N2CCN(CCO)CC2)c1 [Example 1-88]    > 6.00

Enquiry: State pIC50 (Human CCR3 (Homo sapiens)) of Cc1cc(C)cc(Oc2ccc(-c3nnnn3CCC#N)cc2S(=O)(=O)N2CCNCC2)c1 [Example 22-3, hydrochloride] .
Return: > 6.00
